The reported numbers originate from ChEMBL document CHEMBL4219168.

# Tested on: Cystine
# PROCEDURE DETAILS: Inhibition of L-cystine crystallization assessed as increase in apparent aqueous solubility after 72 hrs by fluorescence assay
PROPERTY NAME: EC2 (µM)

As a guide, the following entries are already answered.
SMILES ENTRY: N[C@@H](CSSC[C@H](N)C(=O)N1CCOCC1)C(=O)N1CCOCC1
UNIT DESCRIPTOR: µM
EC2: 0.86
//
SMILES ENTRY: N[C@@H](CSSC[C@H](N)C(=O)N1CCCCC1)C(=O)N1CCCCC1
UNIT DESCRIPTOR: µM
EC2: 1.59
//
SMILES ENTRY: COC(=O)[C@@H](N)CSSC[C@H](N)C(=O)OC
UNIT DESCRIPTOR: µM
EC2: 6.37
//
SMILES ENTRY: N[C@@H](CSSC[C@H](N)C(=O)NCCO)C(=O)NCCO
UNIT DESCRIPTOR: µM
EC2: 2.02

a. CN1CCN(C(=O)[C@@H](N)CSSC[C@H](N)C(=O)N2CCN(C)CC2)CC1
b. N[C@@H](CSSC[C@H](N)C(=O)NC1CC1)C(=O)NC1CC1
Parameter metric = EC2. Return the lower-valued option from a and b . # respond with the chosen item's label
a
(a: 0.26 µM, b: 3.53 µM)
